# Measured target: HumRadA22
# Assay details: ITC
Numbered stars: 1 amine (or outer) side, 2 acyl side, 3 side chain; on linkers, the order of the positions; unused ones are H or OH. Bridge positions count the residues as written; N and C are the ends. Primed or numbered codes have the meaning given here. Ends that are not written are not given here. DVP = divinylpyrimidine, c1nc(CC[*:1])cc(CC[*:2])n1; DVT″ = divinyltriazine
Property measured: Kd (nM)
Dear colleague, please return just the value in nM, with no unit written.

# count of solved cases: 3
• VNSSAFSGFSTASGKKLNVSTEALQKAVKLFSDIENIS [BRC8-2 template] = 4
• GSVNSSAFSGFSTASGKKLNVSCEALQKACKLFSDI (linker 23-30 via DVT″) [SP2, tag-free, stapled with DVT] = 17
• GFSGFSTASGKKLNVSCQALQKACKLFSG (linker 17-24 via DVP) [SP24, tag-free, stapled with DVP] = 21

Consider the record given below.
Noted for GCSGFSTASGKKLNVSTQACQKAVKLFSG (linker 2-20 via DVP (inferred)) [SP30, tag-free, stapled with DVP] : its Kd reads 26
